- subject.of.test: hERG potassium channels (Homo sapiens)
- Sequence (Q12809 whole entry): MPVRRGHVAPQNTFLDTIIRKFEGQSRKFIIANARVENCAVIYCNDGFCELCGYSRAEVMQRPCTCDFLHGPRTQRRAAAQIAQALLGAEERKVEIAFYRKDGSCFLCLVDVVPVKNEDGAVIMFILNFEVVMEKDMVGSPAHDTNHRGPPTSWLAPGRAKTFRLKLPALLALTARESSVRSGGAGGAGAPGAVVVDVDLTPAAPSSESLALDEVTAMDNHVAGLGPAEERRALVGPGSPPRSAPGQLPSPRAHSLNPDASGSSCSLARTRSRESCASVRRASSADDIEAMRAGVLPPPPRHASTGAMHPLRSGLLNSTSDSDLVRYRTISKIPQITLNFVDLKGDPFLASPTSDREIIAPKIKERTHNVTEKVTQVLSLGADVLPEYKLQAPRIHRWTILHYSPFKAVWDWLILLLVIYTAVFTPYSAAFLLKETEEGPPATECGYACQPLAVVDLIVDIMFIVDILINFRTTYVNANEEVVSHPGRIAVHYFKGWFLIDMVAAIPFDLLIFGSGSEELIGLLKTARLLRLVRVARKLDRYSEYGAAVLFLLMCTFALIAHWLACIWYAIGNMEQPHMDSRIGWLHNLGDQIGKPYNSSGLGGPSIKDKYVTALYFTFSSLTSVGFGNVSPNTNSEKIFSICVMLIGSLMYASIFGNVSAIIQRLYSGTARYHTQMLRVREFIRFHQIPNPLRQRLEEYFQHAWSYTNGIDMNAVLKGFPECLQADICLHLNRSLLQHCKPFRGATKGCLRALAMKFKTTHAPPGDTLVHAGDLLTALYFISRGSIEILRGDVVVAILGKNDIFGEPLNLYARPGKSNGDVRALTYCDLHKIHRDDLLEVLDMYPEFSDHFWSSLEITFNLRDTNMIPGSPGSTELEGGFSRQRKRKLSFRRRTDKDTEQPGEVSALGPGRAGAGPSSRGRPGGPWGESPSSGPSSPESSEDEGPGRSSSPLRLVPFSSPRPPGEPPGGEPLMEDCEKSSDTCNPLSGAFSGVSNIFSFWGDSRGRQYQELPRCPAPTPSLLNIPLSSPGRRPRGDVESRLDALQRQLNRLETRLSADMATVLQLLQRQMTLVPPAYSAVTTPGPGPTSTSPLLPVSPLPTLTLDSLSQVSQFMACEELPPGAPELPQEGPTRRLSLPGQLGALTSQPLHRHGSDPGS
- assay.name: hERG potassium channel block, electrophysiology (IonWorks Quattro), CHO cells; also: test concentration or dose not given here
- condition.description: % block of hERG current, cloned hERG channels in CHO cells, IonWorks Quattro
For each entry below, report its hERG [%] value.
Numbers only, in %.

Known results for molecules:
>>> print(df.to_string())
                               smiles_entry  quantity_name  unit_of_measure  result_number
0  O=S(=O)(NCCCCN1CCN(c2noc3ccccc23)CC1)c1ccc2ccccc2c1       hERG [%]                %           −1.4
1  O=S(=O)(NCCCCN1CCC(c2noc3cc(F)ccc23)CC1)c1cccc2ccccc12       hERG [%]                %             24
2  O=S(=O)(NCCCCN1CCC(c2noc3cc(F)ccc23)CC1)c1ccc2ccccc2c1       hERG [%]                %             30
3  O=S(=O)(NCCCCN1CCN(c2cccc3[nH]ccc23)CC1)c1ccc(C(F)(F)F)cc1       hERG [%]                %              5
4  Cc1cccc(S(=O)(=O)NCCCN2CCN(c3nsc4ccccc34)CC2)c1       hERG [%]                %             14
5  Cc1cccc(S(=O)(=O)NCCCN2CCC(c3noc4cc(F)ccc34)CC2)c1       hERG [%]                %             52
6  O=S(=O)(NCCCN1CCN(c2nsc3ccccc23)CC1)c1cccc2ccccc12       hERG [%]                %             17

Please turn your attention to the following entry.
Measured hERG [%], N#Cc1cccc(S(=O)(=O)NCCCN2CCC(c3noc4cc(F)ccc34)CC2)c1 : 40.5

// provenance: patent US8822517B2
